assay: In vitro inhibition of EGF-stimulated DNA synthesis of ER 22 cells by following the incorporation of methyl-[3H]thymidine.
endpoint-label: IC50 (µM)

Past entries and their recorded results:
[[record]]
smiles_structure = "CC(C)(C)c1cc(O)cc(-c2ccc(C(=O)NCc3ccccc3)cc2)c1"
endpoint_label = "IC50"
numeric_result = 5.4

[[record]]
smiles_structure = "O=C(NCc1ccccc1)c1ccc(-c2cc(O)cc(-c3ccccc3)c2)cc1"
endpoint_label = "IC50"
numeric_result = 8

[[record]]
smiles_structure = "O=C(NCc1ccccc1)c1ccc(-c2ccc(-c3ccccc3)cc2O)cc1"
endpoint_label = "IC50"
numeric_result = 1.4

[[record]]
smiles_structure = "O=C(O)c1ccc(-c2cc(O)cc(-c3ccccc3)c2)cc1"
endpoint_label = "IC50"
numeric_result = 10

[[record]]
smiles_structure = "COCOc1cc(C(C)(C)C)ccc1-c1ccc(C(=O)OC)cc1"
endpoint_label = "IC50"
numeric_result = 10


1: COCOc1cc(-c2ccccc2)ccc1-c1ccc(C(=O)O)cc1
2: COCOc1cc(-c2ccccc2)ccc1-c1ccc(C(=O)NCc2ccccc2)cc1
Query :: Compare reported IC50 values for 1 and 2 . Which is lower? Your choice should be expressed through its label.
Result :: 2
(2: 1.1 µM, 1: 10 µM)

###

test: In vitro inhibition of EGF-stimulated DNA synthesis of ER 22 cells by following the incorporation of methyl-[3H]thymidine.
endpoint-label: IC50

Past entries and their recorded results:
[[record]]
compound = "COC(=O)c1ccc(-c2cccc(-c3ccccc3)c2O)cc1"
endpoint_label = "IC50"
result = "> 5 µM"

[[record]]
compound = "COCOc1cc(-c2ccccc2)ccc1-c1ccc(C(=O)OC)cc1"
endpoint_label = "IC50"
result = "> 5 µM"

[[record]]
compound = "CC(COC(=O)c1ccc(-c2cc(O)cc(-c3ccccc3)c2)cc1)CC(C)(C)C (stereo not drawn)"
endpoint_label = "IC50"
result = "> 5 µM"

[[record]]
compound = "CC(C)(C)c1cc(O)cc(-c2ccc(C(=O)O)cc2)c1"
endpoint_label = "IC50"
result = "> 20 µM"

[[record]]
compound = "COCOc1c(-c2ccccc2)cccc1-c1ccc(C(=O)OCC(C)CC(C)(C)C)cc1 (stereo not drawn)"
endpoint_label = "IC50"
result = "> 10 µM"


Query :: Look up and state reported IC50 for COC(=O)c1ccc(-c2ccc(C(C)(C)C)cc2O)cc1
Result :: > 5 µM

Query :: Look up and state reported IC50 for CC(COC(=O)c1ccc(-c2cc(O)cc(C(C)(C)C)c2)cc1)CC(C)(C)C (stereo not drawn)
Result :: > 5 µM

Query :: Look up and state reported IC50 for CC(COC(=O)c1ccc(-c2cccc(-c3ccccc3)c2O)cc1)CC(C)(C)C (stereo not drawn)
Result :: > 10 µM
